# Measurement Target: Neuraminidase (Influenza B virus (strain B/Lee/1940))
# Sequence (P03474 whole entry): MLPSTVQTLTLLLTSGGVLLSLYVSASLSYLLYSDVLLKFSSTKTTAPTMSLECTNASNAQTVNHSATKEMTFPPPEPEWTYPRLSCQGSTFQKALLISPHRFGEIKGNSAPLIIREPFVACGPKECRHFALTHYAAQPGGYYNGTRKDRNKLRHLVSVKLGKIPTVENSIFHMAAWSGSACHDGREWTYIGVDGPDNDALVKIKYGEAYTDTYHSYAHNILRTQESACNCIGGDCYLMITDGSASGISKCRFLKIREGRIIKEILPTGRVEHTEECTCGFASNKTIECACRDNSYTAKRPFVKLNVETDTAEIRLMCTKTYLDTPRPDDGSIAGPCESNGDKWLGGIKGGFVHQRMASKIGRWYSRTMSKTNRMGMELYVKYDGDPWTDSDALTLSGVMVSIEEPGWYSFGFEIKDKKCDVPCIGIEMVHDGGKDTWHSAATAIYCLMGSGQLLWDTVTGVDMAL
# Test: Effective concentration against neuraminidase of Influenza B virus B/Memphis strain
// values below are reported pEC50
# reply with the number alone; pEC50 is -log10 of concentration in mol/L

[[record]]
structure_smiles = "CC(=O)N[C@@H](CC(C)C)[C@@H]1N[C@@H](C(=O)O)C[C@H]1c1c[nH]cn1"
readout = "pEC50"
measured_result = 4.96

[[record]]
structure_smiles = "CC(=O)N[C@@H](CC(C)C)[C@@H]1N[C@@H](C(=O)O)C[C@H]1C=C(F)F"
readout = "pEC50"
measured_result = 5.05

[[record]]
structure_smiles = "C=C[C@@H]1C[C@H](C(=O)O)N[C@H]1[C@H](CC(C)C)NC(C)=O"
readout = "pEC50"
measured_result = 4.64


Exercise: Return reported pEC50. Input compound: `CC(=O)N[C@@H](CC(C)C)[C@@H]1N[C@@H](C(=O)O)C[C@H]1c1nccs1`
Key: 5.22
